src = patent US20040116440A1

target_system: cloned human NMB-preferring receptor (BB1) (Homo sapiens, UniProt P28336)
Construct: expressed in transfected cells; membranes prepared from the cells
Sequence (P28336 whole entry): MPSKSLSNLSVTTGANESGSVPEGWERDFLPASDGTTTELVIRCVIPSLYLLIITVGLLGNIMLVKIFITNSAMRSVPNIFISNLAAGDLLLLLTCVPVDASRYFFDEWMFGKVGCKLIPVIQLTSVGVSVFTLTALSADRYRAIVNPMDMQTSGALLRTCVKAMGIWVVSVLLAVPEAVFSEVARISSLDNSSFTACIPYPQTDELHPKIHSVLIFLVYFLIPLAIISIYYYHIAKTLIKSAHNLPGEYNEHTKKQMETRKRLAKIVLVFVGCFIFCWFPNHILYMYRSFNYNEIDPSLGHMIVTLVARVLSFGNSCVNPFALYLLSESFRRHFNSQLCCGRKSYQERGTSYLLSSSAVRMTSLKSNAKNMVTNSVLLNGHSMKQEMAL
method_description: BB1 binding assay, [125I][Tyr4]bombesin competition on membranes of CHO-K1 cells
assay_conditions: Table 6, N-terminal sulfonamide derivatives, 60 minutes
pIC50: −log10 of the molar value.
measured_parameter: pIC50

C[C@@](Cc1c[nH]c2ccccc12)(NS(=O)(=O)c1cc(C(F)(F)F)ccc1Cl)C(=O)NCC1(c2ccccn2)CCCCC1 | 6.20
C[C@@](Cc1c[nH]c2ccccc12)(NS(=O)(=O)c1ccc(C(F)(F)F)cc1[N+](=O)[O-])C(=O)NCC1(c2ccccn2)CCCCC1 | 6.12
